targetOfAssay: Cysteine protease ATG4B (Homo sapiens)
Sequence (Q9Y4P1 whole entry): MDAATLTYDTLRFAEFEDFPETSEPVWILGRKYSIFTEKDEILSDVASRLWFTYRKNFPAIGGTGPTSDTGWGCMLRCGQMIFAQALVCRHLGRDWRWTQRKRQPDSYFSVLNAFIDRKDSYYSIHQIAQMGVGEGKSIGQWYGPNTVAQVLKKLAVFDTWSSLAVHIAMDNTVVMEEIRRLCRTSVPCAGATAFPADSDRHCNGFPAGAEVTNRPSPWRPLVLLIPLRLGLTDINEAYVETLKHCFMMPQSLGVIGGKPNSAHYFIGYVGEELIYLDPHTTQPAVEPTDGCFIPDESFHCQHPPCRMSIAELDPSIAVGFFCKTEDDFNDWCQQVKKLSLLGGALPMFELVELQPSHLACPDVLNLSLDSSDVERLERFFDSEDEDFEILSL
testProtocol: Inhibition of ATG4B (unknown origin) using N-(His)6-LC3B(L123C)Biotin as substrate preincubated for 30 mins and measured after 1 hr by AlphaScreen method
conditionContext: read-out: IC50
Parameter IC50: see the listing below.
Give the number; µM is assumed, so skip it.

                                   compound  experimentalvalue
0         Oc1ccc(C2=Nc3cccc4cccc(c34)N2)cc1                300
1  CCCCC(O)CNc1cc2c3c(cccc3c1)NC2=O (centres undefined)                235

# next compound below
compound O=C(/C=C1/Nc2cc(Cl)c(Cl)cc2NC1=O)N/N=C/c1ccccc1O , IC50 observed: 315
